Experiment: Apparent permeability of the compound was determined inCaco-2 (human colon carcinoma) cells; Activity = Papp 10E-6
Type: ADME
Conditions: Caco-2
Recorded Papp for the following compounds
reportedEndpoint: Papp (×10⁻⁶ cm/s)

- compound: "COCCc1ccc(OCC(O)CNC(C)C)cc1 (configuration not stated)"
  value: 18.2
- compound: "CC(C)NCC(O)COc1cccc2ccccc12 (configuration not stated)"
  value: 12.6
